Taken from the kinase profiling compilation of Christmann-Franck et al. (2016).

- Test target: ROS1 (human) (UniProt P08922)
- Experimental protocol: radiometric filter-binding kinase assay, Kinase HotSpot
- Condition description: compound 0.5 µM; ATP 10 µM
Hi there, I'd appreciate the recorded residual activity for every entry that follows.
Give bare numbers, in %.

Need residual activity for each of these molecules.
1. CCOc1cc2ncnc(Nc3cccc(Br)c3)c2cc1OCC
2. Nc1ncnc2c1cnn2-c1ccccc1
3. O=c1[nH]c2ccccc2n1C1CCN(Cc2ccc(-c3nc4cc5[nH]cnc5cc4nc3-c3ccccc3)cc2)CC1
4. COc1cc2c(N3CCN(C(=O)Nc4ccc(OC(C)C)cc4)CC3)ncnc2cc1OCCCN1CCCCC1
5. COc1cccc(-c2cc(=O)c3ccccc3o2)c1N

Return:
1: 102; 2: 94.2; 3: 101; 4: 90.1; 5: 97.5

----------
- Test target: MARK3 (human) (UniProt P27448)
- Sequence (P27448 whole entry, looked up): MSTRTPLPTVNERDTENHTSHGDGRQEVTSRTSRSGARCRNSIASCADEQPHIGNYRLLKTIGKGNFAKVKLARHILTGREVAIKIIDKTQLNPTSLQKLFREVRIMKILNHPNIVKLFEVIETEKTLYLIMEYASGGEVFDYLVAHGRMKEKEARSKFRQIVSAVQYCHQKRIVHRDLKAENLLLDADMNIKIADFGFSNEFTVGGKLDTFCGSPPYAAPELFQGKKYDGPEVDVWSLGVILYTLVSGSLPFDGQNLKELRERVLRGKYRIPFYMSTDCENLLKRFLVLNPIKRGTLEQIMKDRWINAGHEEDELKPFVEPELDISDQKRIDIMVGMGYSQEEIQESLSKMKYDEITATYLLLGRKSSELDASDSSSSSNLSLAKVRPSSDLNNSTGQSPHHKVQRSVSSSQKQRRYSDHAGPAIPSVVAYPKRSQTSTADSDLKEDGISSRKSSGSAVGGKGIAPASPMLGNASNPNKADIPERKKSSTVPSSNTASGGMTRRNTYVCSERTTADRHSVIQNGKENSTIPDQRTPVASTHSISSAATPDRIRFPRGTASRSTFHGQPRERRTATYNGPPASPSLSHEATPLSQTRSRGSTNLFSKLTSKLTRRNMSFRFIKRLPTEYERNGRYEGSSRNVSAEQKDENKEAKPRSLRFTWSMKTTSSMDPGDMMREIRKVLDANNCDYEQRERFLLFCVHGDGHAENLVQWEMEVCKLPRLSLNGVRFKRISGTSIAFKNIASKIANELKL
- Experimental protocol: radiometric filter-binding kinase assay, Kinase HotSpot
- Condition description: compound 0.5 µM; ATP 10 µM
Hi there, I'd appreciate the recorded residual activity for every entry that follows.
Give bare numbers, in %.

| Structure smiles | Measure | Units of measure | Measurement |
| --- | --- | --- | --- |
| N#Cc1c(NC(=O)c2cccc3ccccc23)sc2c1CCCC2 | residual activity | % | 97.1 |
| O=c1c(-c2ccc(F)cc2)c(-c2ccncc2)[nH]n1-c1ccc(Cl)cc1 | residual activity | % | 87.2 |
| CCCCc1c(-c2ccc(O)cc2)[nH]c2nccnc12 | residual activity | % | 88.2 |
| Cc1cc(Nc2nc(-c3ccccc3)nc3ccccc23)n[nH]1 | residual activity | % | 89 |
| O=C(c1ccccc1)c1ccc(N2CCOCC2)cc1O | residual activity | % | 105 |

Need residual activity for each of these molecules.
1. O=C1NC(=O)c2c1c1c3ccccc3[nH]c1c1[nH]c3cc(Br)ccc3c21
2. O=c1cc(N2CCOCC2)oc2c(-c3ccccc3)cccc12
3. COc1cc2c(cc1OC)-c1[nH]nc(Nc3cccc(F)c3)c1C2
4. N/C(=N\N=C/c1ccc(-c2cccc([N+](=O)[O-])c2)o1)N[N+](=O)[O-]
5. N#C/C(=C1/Nc2ccccc2S1)c1ccnc(NCCc2cccnc2)n1

Return:
57.3
95.4
69.9
107
94.9

----------
Hi there, I'd appreciate the recorded residual activity for every entry that follows.
- Test target: RPS6KA4 KD2 (human)
- Experimental protocol: radiometric filter-binding kinase assay, Kinase HotSpot
- Condition description: compound 0.5 µM; ATP 10 µM
Express the reported value numerically, then name its unit.

| Structure smiles | residual activity |
| --- | --- |
| CCOc1cc2ncnc(Nc3cccc(Br)c3)c2cc1OCC | 95.4% |
| O=c1[nH]c2ccccc2n1C1CCN(Cc2ccc(-c3nc4cc5[nH]cnc5cc4nc3-c3ccccc3)cc2)CC1 | 98.8% |
| O=c1cc(N2CCOCC2)oc2c(-c3ccccc3)cccc12 | 111% |
| O=C1NC(=O)c2cc(Nc3ccc(F)cc3)c(Nc3ccc(F)cc3)cc21 | 102% |

Now look at this entry.
Enquiry: Bench note: what residual activity did COc1cc2ncnc(Nc3ccc(O)c(Br)c3)c2cc1OC show?
Return: 93.8%

----------
Hi there, I'd appreciate the recorded residual activity for every entry that follows.
- Test target: CDK6 CCND3 (human) (UniProt P30281+Q00534)
- Sequence (P30281 whole entry, looked up): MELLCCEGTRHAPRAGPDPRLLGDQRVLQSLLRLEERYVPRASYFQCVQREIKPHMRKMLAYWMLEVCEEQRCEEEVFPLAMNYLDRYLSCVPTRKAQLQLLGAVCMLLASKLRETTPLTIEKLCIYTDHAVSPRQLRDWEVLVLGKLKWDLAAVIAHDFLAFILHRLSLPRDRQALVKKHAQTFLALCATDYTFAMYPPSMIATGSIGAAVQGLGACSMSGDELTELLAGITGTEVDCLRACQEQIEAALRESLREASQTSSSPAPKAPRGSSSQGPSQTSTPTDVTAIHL
- Sequence (Q00534 whole entry, looked up): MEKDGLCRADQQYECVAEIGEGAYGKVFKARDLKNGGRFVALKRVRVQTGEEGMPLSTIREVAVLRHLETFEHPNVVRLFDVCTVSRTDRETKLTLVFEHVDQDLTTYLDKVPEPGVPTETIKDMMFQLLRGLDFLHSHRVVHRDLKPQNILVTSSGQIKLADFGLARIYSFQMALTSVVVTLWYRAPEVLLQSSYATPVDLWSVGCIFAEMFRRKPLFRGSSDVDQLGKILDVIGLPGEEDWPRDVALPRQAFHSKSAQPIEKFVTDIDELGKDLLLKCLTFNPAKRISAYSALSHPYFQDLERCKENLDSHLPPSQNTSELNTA
- Experimental protocol: radiometric filter-binding kinase assay, Kinase HotSpot
- Condition description: compound 0.5 µM; ATP 10 µM
Express the reported value numerically, then name its unit.

| Structure smiles | Measurement |
| --- | --- |
| Cn1cc(/C=C2\C(=O)Nc3ccc(S(N)(=O)=O)cc32)c2ccccc21 | 81.4% |
| Cc1cc(Nc2nc(-c3ccccc3)nc3ccccc23)n[nH]1 | 58.4% |
| O=c1cc(N2CCOCC2)oc2c(-c3ccccc3)cccc12 | 101% |

Need residual activity for each of these compounds.
1. COc1cc2ncnc(Nc3ccc(O)c(Br)c3)c2cc1OC
2. O=S(=O)(NCCNC/C=C/c1ccc(Br)cc1)c1cccc2cnccc12
3. N#Cc1c(NC(=O)c2cccc3ccccc23)sc2c1CCCC2

Return:
102%
96.6%
99%

----------
Hi there, I'd appreciate the recorded residual activity for every entry that follows.
- Test target: AURKA (human) (UniProt O14965)
- Sequence (O14965 whole entry, looked up): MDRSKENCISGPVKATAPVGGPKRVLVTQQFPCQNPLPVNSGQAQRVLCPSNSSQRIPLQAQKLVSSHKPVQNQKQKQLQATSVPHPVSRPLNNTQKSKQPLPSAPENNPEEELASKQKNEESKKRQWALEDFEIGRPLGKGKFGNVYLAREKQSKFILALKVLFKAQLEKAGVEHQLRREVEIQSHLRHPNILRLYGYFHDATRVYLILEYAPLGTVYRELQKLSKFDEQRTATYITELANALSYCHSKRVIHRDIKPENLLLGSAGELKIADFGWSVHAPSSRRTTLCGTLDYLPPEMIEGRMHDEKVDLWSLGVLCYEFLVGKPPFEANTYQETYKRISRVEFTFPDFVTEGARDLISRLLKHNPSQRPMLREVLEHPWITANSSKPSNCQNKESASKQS
- Experimental protocol: radiometric filter-binding kinase assay, Kinase HotSpot
- Condition description: compound 0.5 µM; ATP 10 µM
Answers are plain numbers, in %.

| Structure smiles | residual activity, % |
| --- | --- |
| O=c1cc(N2CCOCC2)oc2c(-c3ccccc3)cccc12 | 99 |
| CCOc1cc2ncnc(Nc3cccc(Br)c3)c2cc1OCC | 110 |
| O=c1c(-c2ccc(F)cc2)c(-c2ccncc2)[nH]n1-c1ccc(Cl)cc1 | 94 |

Need residual activity for each of these compounds.
1. O=S(=O)(NCCNC/C=C/c1ccc(Br)cc1)c1cccc2cnccc12
2. Cc1cc(Nc2nc(-c3ccccc3)nc3ccccc23)n[nH]1
3. N#C/C(=C1/Nc2ccccc2S1)c1ccnc(NCCc2cccnc2)n1
4. O=c1[nH]c2ccccc2n1C1CCN(Cc2ccc(-c3nc4cc5[nH]cnc5cc4nc3-c3ccccc3)cc2)CC1
5. N#Cc1c(NC(=O)c2cccc3ccccc23)sc2c1CCCC2
6. O=C(c1ccccc1)c1ccc(N2CCOCC2)cc1O
7. CCCCc1c(-c2ccc(O)cc2)[nH]c2nccnc12

Return:
1: 104; 2: 19.8; 3: 83.8; 4: 99; 5: 101; 6: 108; 7: 24.5

Enquiry: Bench note: what residual activity did COc1cc2ncnc(Nc3ccc(O)c(Br)c3)c2cc1OC show?
Return: 83.1

----------
- Test target: GSK3A (human)
- Experimental protocol: radiometric filter-binding kinase assay, Kinase HotSpot
- Condition description: compound 0.5 µM; ATP 10 µM
Assign criterion met whenever residual activity does not fall below 90%; assign criterion not met whenever it does.

| Structure smiles | Class name |
| --- | --- |
| COc1cc2c(Nc3ccc(Br)cc3F)ncnc2cc1OCC1CCN(C)CC1 | criterion met |

Enquiry: Does N/C(=N\N=C/c1ccc(-c2cccc([N+](=O)[O-])c2)o1)N[N+](=O)[O-] have a reported residual activity of at least 90%?
Return: criterion met

Enquiry: Does O=C1NC(=O)c2c1c1c3ccccc3[nH]c1c1[nH]c3cc(Br)ccc3c21 have a reported residual activity of at least 90%?
Return: criterion not met

Enquiry: Does COc1cc2ncnc(Nc3ccc(O)c(Br)c3)c2cc1OC have a reported residual activity of at least 90%?
Return: criterion met

----------
- Test target: RPS6KA6 KD1 KD2 (human) (UniProt Q9UK32)
- Sequence (Q9UK32 whole entry, looked up): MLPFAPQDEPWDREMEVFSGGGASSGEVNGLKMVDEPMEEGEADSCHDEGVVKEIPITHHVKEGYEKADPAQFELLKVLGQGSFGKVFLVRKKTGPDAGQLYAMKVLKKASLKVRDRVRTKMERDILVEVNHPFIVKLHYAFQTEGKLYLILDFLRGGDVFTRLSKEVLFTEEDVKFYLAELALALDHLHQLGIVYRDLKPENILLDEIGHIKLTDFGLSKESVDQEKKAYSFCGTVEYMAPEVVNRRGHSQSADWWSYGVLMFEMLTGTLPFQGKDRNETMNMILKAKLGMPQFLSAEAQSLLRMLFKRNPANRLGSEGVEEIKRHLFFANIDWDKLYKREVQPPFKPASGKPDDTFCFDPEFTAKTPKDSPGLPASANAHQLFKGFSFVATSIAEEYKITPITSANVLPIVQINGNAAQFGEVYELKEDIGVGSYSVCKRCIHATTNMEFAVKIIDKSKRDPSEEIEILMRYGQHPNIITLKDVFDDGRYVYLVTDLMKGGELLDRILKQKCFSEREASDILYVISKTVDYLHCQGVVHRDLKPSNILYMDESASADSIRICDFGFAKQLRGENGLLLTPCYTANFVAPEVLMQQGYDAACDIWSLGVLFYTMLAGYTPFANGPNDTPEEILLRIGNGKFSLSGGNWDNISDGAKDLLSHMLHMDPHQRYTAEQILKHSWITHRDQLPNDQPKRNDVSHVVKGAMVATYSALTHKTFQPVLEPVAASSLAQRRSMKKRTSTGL
- Experimental protocol: radiometric filter-binding kinase assay, Kinase HotSpot
- Condition description: compound 0.5 µM; ATP 10 µM
Measure: residual activity (%)
Numbers only, in %.

Worked examples follow.
| Structure smiles | residual activity (%) |
| --- | --- |
| O=C1NC(=O)c2c1c1c3ccccc3[nH]c1c1[nH]c3cc(Br)ccc3c21 | 32.4 |
| COc1cccc(-c2cc(=O)c3ccccc3o2)c1N | 95.2 |
| COc1cc2c(Nc3ccc(Br)cc3F)ncnc2cc1OCC1CCN(C)CC1 | 99.3 |
| Nc1ncnc2c1cnn2-c1ccccc1 | 94.1 |
| O=C(O)c1ccc2c3c1cccc3c(=O)n1c3ccccc3nc21 | 101 |

Need residual activity for each of these compounds.
1. N#C/C(=C1/Nc2ccccc2S1)c1ccnc(NCCc2cccnc2)n1
2. CCc1nc(-c2ccc(OC)cc2)[nH]c1-c1ccncc1
3. O=C(c1ccccc1)c1ccc(N2CCOCC2)cc1O
4. O=S(=O)(NCCNC/C=C/c1ccc(Br)cc1)c1cccc2cnccc12
5. N#CCCc1ccc2c(c1)-c1[nH]c3ccc([N+](=O)[O-])cc3c1CC(=O)N2

Return:
87
111
101
71.8
13.4

----------
- Test target: MAP3K8 (human) (UniProt P41279)
- Sequence (P41279 whole entry, looked up): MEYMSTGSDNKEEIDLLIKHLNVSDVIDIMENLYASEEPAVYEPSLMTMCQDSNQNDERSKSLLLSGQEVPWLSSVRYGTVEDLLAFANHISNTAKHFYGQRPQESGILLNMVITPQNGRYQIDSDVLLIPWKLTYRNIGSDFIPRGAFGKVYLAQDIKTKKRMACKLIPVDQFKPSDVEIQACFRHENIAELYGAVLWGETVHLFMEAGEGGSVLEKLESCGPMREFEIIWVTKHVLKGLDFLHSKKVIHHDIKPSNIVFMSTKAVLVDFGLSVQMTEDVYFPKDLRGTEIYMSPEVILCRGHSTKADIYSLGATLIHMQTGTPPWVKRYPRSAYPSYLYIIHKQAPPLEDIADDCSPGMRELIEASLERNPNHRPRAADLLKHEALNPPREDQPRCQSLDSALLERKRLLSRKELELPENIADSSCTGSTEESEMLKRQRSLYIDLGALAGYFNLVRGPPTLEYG
- Experimental protocol: radiometric filter-binding kinase assay, Kinase HotSpot
- Condition description: compound 0.5 µM; ATP 10 µM
Measure: residual activity (%)
One number for each entry, in %.

| Structure smiles | Measurement |
| --- | --- |
| O=C(O)c1ccc2c3c1cccc3c(=O)n1c3ccccc3nc21 | 88.3 |
| COc1cccc(-c2cc(=O)c3ccccc3o2)c1N | 85.7 |
| Nc1ncnc2c1cnn2-c1ccccc1 | 98.6 |
| c1ccc(-c2cnc(Nc3ccc(OCCN4CCCC4)cc3)s2)cc1 | 97.2 |
| N#Cc1c(NC(=O)c2cccc3ccccc23)sc2c1CCCC2 | 99.8 |

Enquiry: Bench note: what residual activity did O=c1cc(N2CCOCC2)oc2c(-c3ccccc3)cccc12 show?
Return: 98.2

----------
- Test target: UniProtKB Q96RG2
- Sequence (Q96RG2 whole entry, looked up): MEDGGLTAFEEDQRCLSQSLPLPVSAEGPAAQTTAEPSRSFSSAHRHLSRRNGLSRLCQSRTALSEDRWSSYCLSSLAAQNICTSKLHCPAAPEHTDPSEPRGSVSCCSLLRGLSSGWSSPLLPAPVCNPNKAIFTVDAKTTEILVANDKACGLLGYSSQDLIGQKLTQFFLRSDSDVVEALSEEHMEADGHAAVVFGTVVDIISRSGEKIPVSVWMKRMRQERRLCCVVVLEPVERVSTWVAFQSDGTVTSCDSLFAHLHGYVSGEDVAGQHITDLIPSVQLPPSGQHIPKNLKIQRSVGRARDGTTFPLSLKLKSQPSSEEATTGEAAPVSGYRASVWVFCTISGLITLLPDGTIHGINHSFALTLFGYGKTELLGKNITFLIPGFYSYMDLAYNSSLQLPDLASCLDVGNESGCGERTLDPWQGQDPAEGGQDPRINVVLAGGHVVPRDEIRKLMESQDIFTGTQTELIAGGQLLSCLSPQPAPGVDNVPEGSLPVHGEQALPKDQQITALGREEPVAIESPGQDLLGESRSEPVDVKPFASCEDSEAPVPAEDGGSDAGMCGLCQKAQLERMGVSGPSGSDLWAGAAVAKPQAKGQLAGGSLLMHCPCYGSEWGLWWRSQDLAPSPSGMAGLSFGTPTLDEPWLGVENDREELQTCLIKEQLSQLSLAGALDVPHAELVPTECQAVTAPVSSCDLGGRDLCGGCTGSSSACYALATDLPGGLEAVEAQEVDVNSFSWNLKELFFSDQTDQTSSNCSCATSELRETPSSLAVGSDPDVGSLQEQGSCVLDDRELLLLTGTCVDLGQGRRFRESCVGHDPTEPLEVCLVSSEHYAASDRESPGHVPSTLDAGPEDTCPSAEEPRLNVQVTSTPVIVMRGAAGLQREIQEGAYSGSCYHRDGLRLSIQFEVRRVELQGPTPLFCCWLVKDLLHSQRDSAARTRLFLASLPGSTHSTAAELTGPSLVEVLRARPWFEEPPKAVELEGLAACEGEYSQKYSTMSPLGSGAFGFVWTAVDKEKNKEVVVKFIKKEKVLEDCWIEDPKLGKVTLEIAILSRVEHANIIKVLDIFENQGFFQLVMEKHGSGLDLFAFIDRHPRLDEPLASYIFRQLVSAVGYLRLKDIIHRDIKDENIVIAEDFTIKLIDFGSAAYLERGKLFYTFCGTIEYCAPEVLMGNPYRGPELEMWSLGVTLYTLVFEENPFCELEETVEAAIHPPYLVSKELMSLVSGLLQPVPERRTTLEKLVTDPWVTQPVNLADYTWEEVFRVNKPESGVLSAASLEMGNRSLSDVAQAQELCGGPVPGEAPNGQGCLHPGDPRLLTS
- Experimental protocol: radiometric filter-binding kinase assay, Kinase HotSpot
- Condition description: compound 0.5 µM; ATP 10 µM
Measure: residual activity (%)
One number for each entry, in %.

Worked examples follow.
| Structure smiles | Measurement |
| --- | --- |
| O=c1cc(N2CCOCC2)oc2c(-c3ccccc3)cccc12 | 90.2 |
| N/C(=N\N=C/c1ccc(-c2cccc([N+](=O)[O-])c2)o1)N[N+](=O)[O-] | 88.4 |
| O=C(c1ccccc1)c1ccc(N2CCOCC2)cc1O | 94.3 |
| COc1cccc(-c2cc(=O)c3ccccc3o2)c1N | 86.1 |
| N#Cc1c(NC(=O)c2cccc3ccccc23)sc2c1CCCC2 | 98.3 |
| CCCCc1c(-c2ccc(O)cc2)[nH]c2nccnc12 | 99.5 |
| N#CCCc1ccc2c(c1)-c1[nH]c3ccc([N+](=O)[O-])cc3c1CC(=O)N2 | 96.9 |
| COc1cc2c(cc1OC)-c1[nH]nc(Nc3cccc(F)c3)c1C2 | 93.3 |
| COc1cc2ncnc(Nc3ccc(O)c(Br)c3)c2cc1OC | 57.9 |
| O=C(O)c1ccc2c3c1cccc3c(=O)n1c3ccccc3nc21 | 106 |

Need residual activity for each of these compounds.
1. COc1cc2c(N3CCN(C(=O)Nc4ccc(OC(C)C)cc4)CC3)ncnc2cc1OCCCN1CCCCC1
2. O=c1[nH]c2ccccc2n1C1CCN(Cc2ccc(-c3nc4cc5[nH]cnc5cc4nc3-c3ccccc3)cc2)CC1
3. CCOc1cc2ncnc(Nc3cccc(Br)c3)c2cc1OCC
4. O=C1NC(=O)c2cc(Nc3ccc(F)cc3)c(Nc3ccc(F)cc3)cc21

Return:
[105, 110, 92.3, 91.3]

Need residual activity for each of these compounds.
1. N#C/C(=C1/Nc2ccccc2S1)c1ccnc(NCCc2cccnc2)n1
2. O=S(=O)(NCCNC/C=C/c1ccc(Br)cc1)c1cccc2cnccc12
3. O=C1NC(=O)c2c1c1c3ccccc3[nH]c1c1[nH]c3cc(Br)ccc3c21
4. O=c1c2ccccc2[nH]c(=S)n1CCN1CCC(=C(c2ccc(F)cc2)c2ccc(F)cc2)CC1
5. O=c1c(-c2ccc(F)cc2)c(-c2ccncc2)[nH]n1-c1ccc(Cl)cc1

Return:
1: 64.1; 2: 94.5; 3: 86.3; 4: 99; 5: 93.6

Need residual activity for each of these compounds.
1. c1ccc(-c2cnc(Nc3ccc(OCCN4CCCC4)cc3)s2)cc1
2. Cn1cc(/C=C2\C(=O)Nc3ccc(S(N)(=O)=O)cc32)c2ccccc21
3. FC(F)(F)c1ccc(/C=C/c2nc(COc3ccc(CCCCn4ccnn4)cc3)co2)cc1

Return:
96.4
84.8
104
